Each recorded value in this set is attributed to the supplement of paper PMC8728848.

# target-entity: Fuc(a1-2)[GalNAc(a1-3)]Gal(b1-4)Glc
# assay: glycan array binding signal (z-score within array); higher = stronger binding
# measurement-parameters: glycan notation: IUPAC condensed, linker removed
About 410 targets per protein were measured; listed, in parts, are those with the strongest signals and a random draw of the rest.
recorded-endpoint: glycan array binding signal (z-score)
Answer as a number with no unit attached.

The examples below pair each entry with its known result.
CLL-1 (Homo sapiens) (protein) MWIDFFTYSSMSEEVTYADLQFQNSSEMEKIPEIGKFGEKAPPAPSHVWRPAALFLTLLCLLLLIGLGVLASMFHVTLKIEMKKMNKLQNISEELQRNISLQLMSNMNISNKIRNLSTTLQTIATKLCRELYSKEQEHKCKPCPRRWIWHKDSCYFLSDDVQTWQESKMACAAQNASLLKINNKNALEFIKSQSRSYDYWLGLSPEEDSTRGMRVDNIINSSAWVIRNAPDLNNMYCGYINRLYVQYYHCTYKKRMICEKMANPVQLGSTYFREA ... -0.065
LBL-152 (Laetiporus bicolor), B0D650 (protein) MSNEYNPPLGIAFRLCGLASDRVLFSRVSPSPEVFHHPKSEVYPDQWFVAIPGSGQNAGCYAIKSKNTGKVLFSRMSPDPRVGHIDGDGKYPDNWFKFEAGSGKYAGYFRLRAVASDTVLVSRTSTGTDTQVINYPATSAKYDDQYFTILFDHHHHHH ... -0.157
FBG5 (Homo sapiens), Q8NI29 (protein) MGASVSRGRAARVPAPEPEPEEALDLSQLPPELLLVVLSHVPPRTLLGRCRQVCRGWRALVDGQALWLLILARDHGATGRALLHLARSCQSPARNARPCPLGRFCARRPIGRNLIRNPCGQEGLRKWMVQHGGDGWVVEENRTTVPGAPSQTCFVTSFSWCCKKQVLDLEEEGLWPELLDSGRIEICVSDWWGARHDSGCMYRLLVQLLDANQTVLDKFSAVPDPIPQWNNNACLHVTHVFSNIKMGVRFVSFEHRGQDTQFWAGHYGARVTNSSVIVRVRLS ... 0.967

Tell me its glycan array binding signal (z-score) given TbCVNHOb (Tuber borchii) (protein) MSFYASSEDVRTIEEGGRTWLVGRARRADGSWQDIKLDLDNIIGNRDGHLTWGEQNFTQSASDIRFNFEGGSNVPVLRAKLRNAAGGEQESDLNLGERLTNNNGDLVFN as the entry.
-0.147

Tell me its glycan array binding signal (z-score) given AT1G15820(2) (Arabidopsis thaliana), Q9LMQ2 (protein) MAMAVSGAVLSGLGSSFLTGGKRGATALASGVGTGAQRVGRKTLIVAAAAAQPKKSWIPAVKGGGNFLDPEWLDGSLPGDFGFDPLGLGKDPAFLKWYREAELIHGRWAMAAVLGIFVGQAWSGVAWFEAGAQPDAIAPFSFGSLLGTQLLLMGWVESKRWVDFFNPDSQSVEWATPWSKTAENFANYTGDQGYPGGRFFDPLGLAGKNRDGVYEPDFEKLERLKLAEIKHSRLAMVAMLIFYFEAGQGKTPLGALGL as the entry.
-0.507
